Taken from patent US20230240297A1.

# System: ZEAMA Sileno
# experiment notes: Seed treatment with safener; post-emergence herbicide application
# Type: in vivo, maize
# reported conditions: HER dose 32 g a.i./ha, no safener, Final assessment
Threshold 90%. HER effect (crop damage, herbicide without safener) below it: Fulfilled. HER effect (crop damage, herbicide without safener) at it or above: Not fulfilled.

{"molecule": "CCOC(=O)C1C=CC(NC(=O)C2(C(F)(F)F)CC(c3ccccc3)=NO2)C1 (stereo not shown) [Example 1.9]", "qualitative label": "Fulfilled"}

**Q:** Consider the molecule CC1(C(=O)NC2C=CC(C(=O)OCCSC(F)(F)F)C2)CC(c2cc(F)cc(F)c2)=NO1 (stereo not shown) [Example 1.38] . Is its HER effect (crop damage, herbicide without safener) strictly less than 90%?
**A:** Fulfilled

**Q:** Confirm or reject: HER effect (crop damage, herbicide without safener) of C=CC1(C(=O)NC2COC(C(=O)OC)C2)CC(c2cc(F)cc(F)c2)=NO1 (mixture of isomers) [Example 1.68] lies strictly below 90%
**A:** Not fulfilled

**Q:** Is 90% strictly greater than the molecule's reported HER effect (crop damage, herbicide without safener)? molecule: COCCOC(=O)C1C=CC(NC(=O)C2(C)CC(c3cc(Cl)cc(C#N)c3)=NO2)C1 (stereo not shown) [Example 1.5]
**A:** Not fulfilled

**Q:** Regarding CN(C)C(=O)SCCOC(=O)C1C=CC(NC(=O)C2(C)CC(c3cc(F)cc(F)c3)=NO2)C1 (stereo not shown) [Example 1.29] , kindly confirm whether its HER effect (crop damage, herbicide without safener) is beneath 90%.
**A:** Fulfilled

**Q:** Please let me know if C=CC1(C(=O)NC2C=CC(C(=O)OC)C2)CC(c2cc(F)cc(F)c2)=NO1 (stereo not shown) [Example 1.26] shows HER effect (crop damage, herbicide without safener) below 90%.
**A:** Not fulfilled
